- System under test: T1, full-length recombinant human PAD4 (human, UniProt Q9UM07 1-663)
- T1 construct: also called peptidylarginine deiminase 4
- T1 sequence (Q9UM07 whole entry): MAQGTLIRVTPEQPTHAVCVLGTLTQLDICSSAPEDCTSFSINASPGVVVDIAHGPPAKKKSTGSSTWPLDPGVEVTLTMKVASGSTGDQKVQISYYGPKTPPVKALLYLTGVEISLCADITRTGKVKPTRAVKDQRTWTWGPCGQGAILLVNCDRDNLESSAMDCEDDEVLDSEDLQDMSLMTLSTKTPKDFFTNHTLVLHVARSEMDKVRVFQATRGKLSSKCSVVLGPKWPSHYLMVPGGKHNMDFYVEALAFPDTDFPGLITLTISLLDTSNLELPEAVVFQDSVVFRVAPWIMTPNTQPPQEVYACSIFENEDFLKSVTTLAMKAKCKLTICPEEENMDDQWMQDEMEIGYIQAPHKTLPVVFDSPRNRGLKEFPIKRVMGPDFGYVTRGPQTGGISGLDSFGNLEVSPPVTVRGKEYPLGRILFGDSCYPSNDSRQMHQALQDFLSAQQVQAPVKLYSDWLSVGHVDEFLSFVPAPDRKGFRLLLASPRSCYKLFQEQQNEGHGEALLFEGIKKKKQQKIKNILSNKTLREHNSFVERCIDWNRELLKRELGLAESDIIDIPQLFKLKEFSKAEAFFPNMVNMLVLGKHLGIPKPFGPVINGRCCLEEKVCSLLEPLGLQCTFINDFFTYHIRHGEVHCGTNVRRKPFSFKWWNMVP
- Assay: ELISA, human PAD4 on plate, antibody 0.0002441 ug/mL
Label f if absorbance 490 nm/630 nm falls below 0.2 OD; label t in every other case.

Previously resolved entries follow.
Binder: G8 (antibody, IgG1, V domains shown, Chicken variable regions in mouse chimeric antibody (IgG1) expression vectors; also called anti-PAD4 antibody G8; A11 etc) VH: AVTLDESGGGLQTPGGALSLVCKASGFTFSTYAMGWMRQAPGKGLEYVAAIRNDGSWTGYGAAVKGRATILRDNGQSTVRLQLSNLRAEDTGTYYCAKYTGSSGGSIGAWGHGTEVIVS VL: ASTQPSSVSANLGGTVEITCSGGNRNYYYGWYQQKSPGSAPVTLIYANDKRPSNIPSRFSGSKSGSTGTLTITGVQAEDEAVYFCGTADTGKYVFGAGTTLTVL
Assigned category: f
--
Binder: G9 (antibody, IgG1, V domains shown, Chicken variable regions in mouse chimeric antibody (IgG1) expression vectors; also called anti-PAD4 antibody G9; A11 etc) VH: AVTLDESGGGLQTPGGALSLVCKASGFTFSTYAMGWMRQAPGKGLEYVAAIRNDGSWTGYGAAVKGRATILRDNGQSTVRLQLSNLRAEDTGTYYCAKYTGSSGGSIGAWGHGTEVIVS VL: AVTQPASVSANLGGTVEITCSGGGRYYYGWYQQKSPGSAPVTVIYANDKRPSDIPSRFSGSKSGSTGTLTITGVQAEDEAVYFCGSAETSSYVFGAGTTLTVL
Assigned category: f
--
Binder: G6 (antibody, IgG1, V domains shown, Chicken variable regions in mouse chimeric antibody (IgG1) expression vectors; also called anti-PAD4 antibody G6; A11 etc) VH: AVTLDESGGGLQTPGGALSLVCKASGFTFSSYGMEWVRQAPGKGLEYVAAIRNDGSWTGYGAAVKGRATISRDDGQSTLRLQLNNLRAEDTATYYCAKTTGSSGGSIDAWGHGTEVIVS VL: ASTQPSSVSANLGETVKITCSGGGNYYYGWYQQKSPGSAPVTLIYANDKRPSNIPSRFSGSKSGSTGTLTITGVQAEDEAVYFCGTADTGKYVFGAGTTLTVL
Assigned category: f
--
Binder: E9 (antibody, IgG1, V domains shown, Chicken variable regions in mouse chimeric antibody (IgG1) expression vectors; also called anti-PAD4 antibody E9; A11 etc) VH: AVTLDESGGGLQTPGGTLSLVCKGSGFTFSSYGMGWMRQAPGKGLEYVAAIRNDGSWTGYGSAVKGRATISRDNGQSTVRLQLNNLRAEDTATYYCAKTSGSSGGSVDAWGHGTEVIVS VL: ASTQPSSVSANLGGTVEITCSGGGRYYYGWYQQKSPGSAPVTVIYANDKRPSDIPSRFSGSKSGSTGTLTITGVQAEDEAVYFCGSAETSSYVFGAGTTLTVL
Assigned category: f

# ---- query binder ----
// query Confirm if absorbance 490 nm/630 nm reported for the binder H7 (antibody, IgG1, V domains shown, Chicken variable regions in mouse chimeric antibody (IgG1) expression vectors; also called anti-PAD4 antibody H7; A11 etc) VH: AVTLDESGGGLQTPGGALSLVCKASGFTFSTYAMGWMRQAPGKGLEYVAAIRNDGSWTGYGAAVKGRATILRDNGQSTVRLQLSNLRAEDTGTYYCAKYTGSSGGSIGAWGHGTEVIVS VL: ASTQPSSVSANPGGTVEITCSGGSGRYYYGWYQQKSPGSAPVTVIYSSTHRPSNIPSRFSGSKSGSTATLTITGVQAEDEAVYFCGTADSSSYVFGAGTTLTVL is 0.2 OD or above.
// result t
